- TESTED ON: T1, Human GHR-Fc-10x His (extracellular region of human growth hormone receptor fused to human Fc) (human, UniProt P10912 50-256)
- T1 construct: Captured by its 10x His-tag on a Ni-NTA sensor chip for SPR; not shown: human Fc domain of vector pAB1200 with its linker; 10x His-tag replacing the AviTag
- T1 sequence (looked up): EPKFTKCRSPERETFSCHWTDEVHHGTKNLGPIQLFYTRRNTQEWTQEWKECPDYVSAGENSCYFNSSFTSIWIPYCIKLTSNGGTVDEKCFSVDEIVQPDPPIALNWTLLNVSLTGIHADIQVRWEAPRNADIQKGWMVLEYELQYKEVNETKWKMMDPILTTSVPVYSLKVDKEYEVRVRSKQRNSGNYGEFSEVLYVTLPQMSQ
- EXPERIMENTAL DETAILS: SPR, GHR-Fc-10xHis captured on Ni-NTA chip, Fab as analyte, 1:1 fit
READOUT LABEL: kon (M⁻¹ s⁻¹)
Output spec: scalar in M⁻¹ s⁻¹, unitless text.

Q. Return reported kon; argument: GHR11 Fab (Fab, V domains shown, Fab) VH: EVQLVESGGGLVQPGGSLRLSCAASGFNLSYYYIHWVRQAPGKGLEWVASIYSSSGYTYYADSVKGRFTISADTSKNTAYLQMNSLRAEDTAVYYCARQYPYSWSSYGFSSGALDYWGQGTLVTVSS VL: DIQMTQSPSSLSASVGDRVTITCRASQSVSSAVAWYQQKPGKAPKLLIYSASSLYSGVPSRFSGSRSGTDFTLTISSLQPEDFATYYCQQYFAYYSPITFGQGTKVEIKR
A. 451000

Q. Return reported kon; argument: GHR3 Fab (Fab, V domains shown, Fab) VH: EVQLVESGGGLVQPGGSLRLSCAASGFNVSYYSIHWVRQAPGKGLEWVAYISPSYGSTSYADSVKGRFTISADTSKNTAYLQMNSLRAEDTAVYYCARGYWGGGYWPYHAFDYWGQGTLVTVSS VL: DIQMTQSPSSLSASVGDRVTITCRASQSVSSAVAWYQQKPGKAPKLLIYSASSLYSGVPSRFSGSRSGTDFTLTISSLQPEDFATYYCQQYYTSLLTFGQGTKVEIKR
A. 405000

Q. Return reported kon; argument: GHR7 Fab (Fab, V domains shown, Fab) VH: EVQLVESGGGLVQPGGSLRLSCAASGFNFSYSSIHWVRQAPGKGLEWVAYISSYYGYTSYADSVKGRFTISADTSKNTAYLQMNSLRAEDTAVYYCARLQHPSWYYYQGYHSGMDYWGQGTLVTVSS VL: DIQMTQSPSSLSASVGDRVTITCRASQSVSSAVAWYQQKPGKAPKLLIYSASSLYSGVPSRFSGSRSGTDFTLTISSLQPEDFATYYCQQYWSSLITFGQGTKVEIKR
A. 587000
